- target system: T1, RAS G12V mutant (KRAS G12V) peptide on HLA-DPB1*03:01 (human)
- T1 peptide: TEYKLVVVGAVGV
- procedure summary: activation reporter or marker
endpoint label: binding result

B13.14.1 TCR mutant α32Y-K (TCR, V domains shown) Valpha: AQSVAQPEDQVNVAEGNPLTVKCTYSVSGNPKLFWYVQYPNRGLQFLLKYITGDNLVKGSYGFEAEFNKSQTSFHLKKPSALVSDSALYFCAVRDGRGGGNKLTFGTGTQLKVEL Vbeta: DGGITQSPKYLFRKEGQNVTLSCEQNLNHDAMYWYRQDPGQGLRLIYYSQIVNDFQKGDIAEGYSVSREKKESFPLTVTSAQKNPTAFYLCASSPGQRDNSPLHFGNGTRLTVT : no recognition
B13.14.1 TCR mutant α32Y-F (TCR, V domains shown) Valpha: AQSVAQPEDQVNVAEGNPLTVKCTYSVSGNPFLFWYVQYPNRGLQFLLKYITGDNLVKGSYGFEAEFNKSQTSFHLKKPSALVSDSALYFCAVRDGRGGGNKLTFGTGTQLKVEL Vbeta: DGGITQSPKYLFRKEGQNVTLSCEQNLNHDAMYWYRQDPGQGLRLIYYSQIVNDFQKGDIAEGYSVSREKKESFPLTVTSAQKNPTAFYLCASSPGQRDNSPLHFGNGTRLTVT : no recognition
